# METHOD NOTES: self-splicing fitness, log relative to wild type (ln ratio); higher = more splicing; Tetrahymena group I intron in knt gene, E. coli kanamycin selection, DiMSum; sequences stand for … in CUCUCU…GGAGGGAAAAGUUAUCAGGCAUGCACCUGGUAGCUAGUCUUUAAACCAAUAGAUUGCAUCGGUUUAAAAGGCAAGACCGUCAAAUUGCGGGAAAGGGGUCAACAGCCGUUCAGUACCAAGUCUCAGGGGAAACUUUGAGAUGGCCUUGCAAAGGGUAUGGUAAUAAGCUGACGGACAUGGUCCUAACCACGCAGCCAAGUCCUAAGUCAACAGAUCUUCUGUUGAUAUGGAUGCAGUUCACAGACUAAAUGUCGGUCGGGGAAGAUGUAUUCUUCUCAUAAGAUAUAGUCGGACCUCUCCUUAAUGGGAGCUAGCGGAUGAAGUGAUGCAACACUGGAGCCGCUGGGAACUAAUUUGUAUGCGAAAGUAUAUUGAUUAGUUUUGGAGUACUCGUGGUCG;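 note: selection with 25 µg/mL kanamycin versus none on LB agar overnight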
# MEASUREMENT SETUP: 37 °C
Could you label it true if measured self-splicing fitness (ln) is -1 or higher, and false otherwise?

Task item: Please indicate if the recorded self-splicing fitness (ln) for AGUUAGCAAUAUUACGGAUU meets or exceeds -1.
Reply: true

Next:
Task item: Test whether the sequence AUAUAGCAAUAUUACGUCCC records self-splicing fitness (ln) of -1 or higher.
Reply: true

Task item: hey, is self-splicing fitness (ln) for this one >= -1? UAUCAGCAAUAUUACGUGCU
Reply: false

Task item: # check: self-splicing fitness (ln) of ACAAAGCAAUAUUACGCUGA is greater than or equal to -1
Reply: false

Task item: self-splicing fitness (ln) >= -1 for GAAUAGCAAUAUUACGGUUA ?
Reply: true

Task item: Reported self-splicing fitness (ln) reaches at least -1 for AUUUAGCAAUAUUACGCCCU ?
Reply: true

Task item: Assess whether reported self-splicing fitness (ln) for UAGCAGCAAUAUUACGCACA sits at -1 or higher.
Reply: true

Task item: In plain terms: is recorded self-splicing fitness (ln) at least -1 for GUCGAGCAAUAUUACGGUUC ?
Reply: false

Task item: State whether the measured self-splicing fitness (ln) reaches -1, counting equality as reaching it, for CACGAGCAAUAUUACGCAAU
Reply: false

Task item: Decide: self-splicing fitness (ln) of CGGUAGCAAUAUUACGUGUU >= -1?
Reply: false

Task item: Record UAUAAGCAAUAUUACGGUUA ; criterion: self-splicing fitness (ln) no lower than -1. Met?
Reply: true

Task item: Check the entry UAGAAGCAAUAUUACGGAGU : does self-splicing fitness (ln) equal or exceed -1?
Reply: false

Task item: Determine whether this sequence has self-splicing fitness (ln) no lower than -1: CACAAGCAAUAUUACGAUCU
Reply: false

Task item: Is self-splicing fitness (ln) at least -1? Consider CGAUAGCAAUAUUACGUCAG
Reply: false

Task item: Can AAGCAGCAAUAUUACGCUUG be said to have self-splicing fitness (ln) at or above -1?
Reply: false

Task item: Does the reported self-splicing fitness (ln) for GAAAAGCAAUAUUACGAUGC fall at or above the -1 mark?
Reply: true

Task item: Please tell me: is the sequence UUAAAGCAAUAUUACGAGGU at or over -1 in terms of self-splicing fitness (ln)?
Reply: false

Task item: Hi team, for AGUUAGCAAUAUUACGGGCC , is the recorded self-splicing fitness (ln) at or above -1?
Reply: false

Task item: Is reported self-splicing fitness (ln) greater than or equal to -1 here: CACCAGCAAUAUUACGCUAG
Reply: true

Task item: Test whether the sequence UACGAGCAAUAUUACGAGGC records self-splicing fitness (ln) of -1 or higher.
Reply: false
